# subjectOfTest: canine TRPM8 (Canis lupus familiaris)
# Sequence (Q1A7N1 1-1104): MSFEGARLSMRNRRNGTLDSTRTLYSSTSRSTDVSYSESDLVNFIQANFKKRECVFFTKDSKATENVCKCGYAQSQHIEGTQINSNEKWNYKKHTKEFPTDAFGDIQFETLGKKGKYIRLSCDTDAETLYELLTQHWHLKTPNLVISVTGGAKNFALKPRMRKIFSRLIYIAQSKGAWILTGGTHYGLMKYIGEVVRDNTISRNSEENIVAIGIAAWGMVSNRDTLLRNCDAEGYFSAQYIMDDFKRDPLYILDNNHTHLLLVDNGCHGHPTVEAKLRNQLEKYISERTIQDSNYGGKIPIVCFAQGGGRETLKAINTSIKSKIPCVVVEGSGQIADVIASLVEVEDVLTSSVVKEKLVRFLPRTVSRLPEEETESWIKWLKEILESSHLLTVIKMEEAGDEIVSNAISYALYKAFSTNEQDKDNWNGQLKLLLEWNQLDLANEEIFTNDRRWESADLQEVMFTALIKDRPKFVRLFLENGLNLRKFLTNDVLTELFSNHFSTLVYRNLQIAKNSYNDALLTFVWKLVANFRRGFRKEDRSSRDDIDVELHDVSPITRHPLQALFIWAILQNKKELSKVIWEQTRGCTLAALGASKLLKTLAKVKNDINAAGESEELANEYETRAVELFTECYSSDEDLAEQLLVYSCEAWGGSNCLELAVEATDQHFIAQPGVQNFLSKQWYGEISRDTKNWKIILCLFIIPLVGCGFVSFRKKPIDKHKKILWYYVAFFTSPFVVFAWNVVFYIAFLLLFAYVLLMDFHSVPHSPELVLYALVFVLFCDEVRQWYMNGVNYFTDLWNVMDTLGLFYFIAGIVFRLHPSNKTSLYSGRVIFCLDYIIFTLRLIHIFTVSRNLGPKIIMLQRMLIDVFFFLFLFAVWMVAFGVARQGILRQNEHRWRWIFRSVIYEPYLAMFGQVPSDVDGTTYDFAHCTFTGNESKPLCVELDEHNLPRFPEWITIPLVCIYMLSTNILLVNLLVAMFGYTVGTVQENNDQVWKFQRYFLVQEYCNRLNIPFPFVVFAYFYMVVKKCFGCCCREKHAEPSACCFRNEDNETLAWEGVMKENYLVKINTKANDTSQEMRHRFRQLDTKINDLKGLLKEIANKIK
# assayOverview: In Vitro Canine TRPM8 Functional Assay (Ca2+ fluorescence, icilin activation)
# Format: cell-based
# recordedConditions: HEK293 cells stably expressing canine TRPM8; icilin activation; eight-point dose-response; read-out: IC50
pIC50: −log10 of the molar value.
We use 8 as the dividing line for pIC50: on or above the line is rule met, below is rule not met.

Task: Does pIC50 meet or surpass 8 for COC(=O)c1ccc(S(=O)(=O)N(Cc2ccc(F)c(C(F)(F)F)c2)c2sc3ccccc3c2Br)cc1 [Compound 192] ?
Output: rule not met

Task: Does pIC50 meet or surpass 8 for O=S(=O)(c1ccccc1)N(Cc1ccc(F)c(F)c1)c1sc2ccccc2c1CO [Compound 213] ?
Output: rule met

Task: Does pIC50 meet or surpass 8 for CCCCN(c1sc2ccccc2c1Br)S(=O)(=O)N(C)C [Compound 265] ?
Output: rule not met

Task: Does pIC50 meet or surpass 8 for O=C(O)c1ccc(S(=O)(=O)N(CCC2CC2)c2cc3ccccc3s2)c(F)c1 [Compound 638] ?
Output: rule not met
